Test: Solubility of tirapazamine in water and various vehicles
Type: physicochemical
Conditions: Ethanol, 15 °C, organic solvent or mixture
MEASUREMENT KIND: solubility

Answer with the recorded solubility of Nc1n[n+]([O-])c2ccccc2[n+]1[O-] [Tirapazamine, 1,2,4-benzotriazine-3-amine 1,4-dioxide] only.
470 µg/mL

----------
Experiment: Solubility of tirapazamine in water and various vehicles
Assay type: physicochemical
Conditions: Ethanol 10% v/v in water, 15 °C, aqueous with cosolvent or surfactant or cyclodextrin
MEASUREMENT KIND: solubility (µg/mL)
// return numeric value only (unit: µg/mL, not printed)

Please give measured solubility of the following entry: Nc1n[n+]([O-])c2ccccc2[n+]1[O-] [Tirapazamine, 1,2,4-benzotriazine-3-amine 1,4-dioxide]
930

----------
Assay: Solubility of tirapazamine in water and various vehicles
Format: physicochemical
Settings: water, in water (text, temperature not given)
MEASUREMENT KIND: solubility

Determine from records and report solubility for Nc1n[n+]([O-])c2ccccc2[n+]1[O-] [Tirapazamine, 1,2,4-benzotriazine-3-amine 1,4-dioxide]
~810 µg/mL

----------
Test: Solubility of tirapazamine in water and various vehicles
Type: physicochemical
Details: Water for Injections, 20 °C, water
MEASUREMENT KIND: solubility (µg/mL)
Use µg/mL as the unit, but write only the number.

Input Nc1n[n+]([O-])c2ccccc2[n+]1[O-] [Tirapazamine, 1,2,4-benzotriazine-3-amine 1,4-dioxide] , output reported solubility.
1430

----------
Assay: in vivo
Settings: mouse
MEASUREMENT KIND: LD50 (mg/kg)
Report the figure in mg/kg without appending any unit label.

Indicate its recorded LD50; the compound in question is Nc1n[n+]([O-])c2ccccc2[n+]1[O-] [Tirapazamine, 1,2,4-benzotriazine-3-amine 1,4-dioxide]
101

----------
Assay: Solubility of tirapazamine in water and various vehicles
Format: physicochemical
Settings: Pluronic F68 20% w/v, 15 °C, aqueous with cosolvent or surfactant or cyclodextrin
MEASUREMENT KIND: solubility
Answer format: value, then unit.

Identify the reported solubility for the following entry. Nc1n[n+]([O-])c2ccccc2[n+]1[O-] [Tirapazamine, 1,2,4-benzotriazine-3-amine 1,4-dioxide]
1080 µg/mL

----------
Test: Solubility of tirapazamine in water and various vehicles
Format: physicochemical
Details: Water for Injections, 15 °C, water
MEASUREMENT KIND: solubility (µg/mL)
The reply should be a number in µg/mL, with the unit left off.

Consider the molecule Nc1n[n+]([O-])c2ccccc2[n+]1[O-] [Tirapazamine, 1,2,4-benzotriazine-3-amine 1,4-dioxide] and give its recorded solubility.
850

----------
Experiment: Solubility of tirapazamine in water and various vehicles
Assay type: physicochemical
Details: Ethanol 65% v/v in water, 15 °C, aqueous with cosolvent or surfactant or cyclodextrin
MEASUREMENT KIND: solubility (µg/mL)
Only the number, expressed in µg/mL, is required.

Retrieve solubility measured for Nc1n[n+]([O-])c2ccccc2[n+]1[O-] [Tirapazamine, 1,2,4-benzotriazine-3-amine 1,4-dioxide] and print it.
2840

----------
Assay: Solubility of tirapazamine in water and various vehicles
Type: physicochemical
Conditions: Dimethylformamide 25% v/v in water, 15 °C, aqueous with cosolvent or surfactant or cyclodextrin
MEASUREMENT KIND: solubility

Let me know recorded solubility for Nc1n[n+]([O-])c2ccccc2[n+]1[O-] [Tirapazamine, 1,2,4-benzotriazine-3-amine 1,4-dioxide] , thanks.
1830 µg/mL

----------
Assay: Solubility of tirapazamine in water and various vehicles
Assay type: physicochemical
Conditions: Normal Saline, 15 °C, saline or isotonic
MEASUREMENT KIND: solubility

Give solubility for the following compound: Nc1n[n+]([O-])c2ccccc2[n+]1[O-] [Tirapazamine, 1,2,4-benzotriazine-3-amine 1,4-dioxide]
850 µg/mL

----------
Assay: Solubility of tirapazamine in water and various vehicles
Assay type: physicochemical
Conditions: PEG 400 50% v/v in water, 15 °C, aqueous with cosolvent or surfactant or cyclodextrin
MEASUREMENT KIND: solubility (µg/mL)
Record the value in µg/mL, omitting the unit from your answer.

Tell me solubility reported for Nc1n[n+]([O-])c2ccccc2[n+]1[O-] [Tirapazamine, 1,2,4-benzotriazine-3-amine 1,4-dioxide]
1600

----------
Experiment: Solubility of tirapazamine in water and various vehicles
Assay type: physicochemical
Settings: Tween 80 20% w/v, 15 °C, aqueous with cosolvent or surfactant or cyclodextrin
MEASUREMENT KIND: solubility (µg/mL)
API: value field is a number in µg/mL; no unit string.

Please look at this compound and report its solubility: Nc1n[n+]([O-])c2ccccc2[n+]1[O-] [Tirapazamine, 1,2,4-benzotriazine-3-amine 1,4-dioxide]
1020

----------
Test: Solubility of tirapazamine in water and various vehicles
Format: physicochemical
Conditions: Ethanol 85% v/v in water, 15 °C, aqueous with cosolvent or surfactant or cyclodextrin
MEASUREMENT KIND: solubility (µg/mL)
API: value field is a number in µg/mL; no unit string.

Kindly indicate its recorded solubility. Item: Nc1n[n+]([O-])c2ccccc2[n+]1[O-] [Tirapazamine, 1,2,4-benzotriazine-3-amine 1,4-dioxide]
1710

----------
Assay: Solubility of tirapazamine in water and various vehicles
Format: physicochemical
Conditions: Propylene glycol, 15 °C, organic solvent or mixture
MEASUREMENT KIND: solubility (µg/mL)
Write the answer as a number in µg/mL, unit excluded.

Find the measured solubility of Nc1n[n+]([O-])c2ccccc2[n+]1[O-] [Tirapazamine, 1,2,4-benzotriazine-3-amine 1,4-dioxide] and report it.
3270

----------
Test: Solubility of tirapazamine in water and various vehicles
Assay type: physicochemical
Details: citrate buffer 0.05 M pH 4 (isotonic), 15 °C, pH 4, aqueous buffer
MEASUREMENT KIND: solubility (µg/mL)
API: value field is a number in µg/mL; no unit string.

Specify solubility for Nc1n[n+]([O-])c2ccccc2[n+]1[O-] [Tirapazamine, 1,2,4-benzotriazine-3-amine 1,4-dioxide] and stop.
810

----------
Assay: Solubility of tirapazamine in water and various vehicles
Assay type: physicochemical
Conditions: Albumin 20% w/v, 20 °C, plasma or biological fluid
MEASUREMENT KIND: solubility (µg/mL)
Give the number; µg/mL is assumed, so skip it.

State, in one line, measured solubility of Nc1n[n+]([O-])c2ccccc2[n+]1[O-] [Tirapazamine, 1,2,4-benzotriazine-3-amine 1,4-dioxide]
1710

----------
Test: Solubility of tirapazamine in water and various vehicles
Format: physicochemical
Conditions: Propylene glycol 50% v/v in water, 15 °C, aqueous with cosolvent or surfactant or cyclodextrin
MEASUREMENT KIND: solubility

Tell me solubility reported for Nc1n[n+]([O-])c2ccccc2[n+]1[O-] [Tirapazamine, 1,2,4-benzotriazine-3-amine 1,4-dioxide]
2580 µg/mL

----------
Assay: Solubility of tirapazamine in water and various vehicles
Type: physicochemical
Settings: Albumin 4.5% w/v, 20 °C, plasma or biological fluid
MEASUREMENT KIND: solubility

Name the recorded solubility of the item Nc1n[n+]([O-])c2ccccc2[n+]1[O-] [Tirapazamine, 1,2,4-benzotriazine-3-amine 1,4-dioxide] in your answer.
1330 µg/mL

----------
Assay: Solubility of tirapazamine in water and various vehicles
Format: physicochemical
Conditions: 1% benzyl alcohol : 10% ethanol : 89% water, v/v, 15 °C, aqueous with cosolvent or surfactant or cyclodextrin, 1% Benzyl alcohol: 10% ethanol:89% water, v/v, 15°C
MEASUREMENT KIND: solubility (µg/mL)
Express it in µg/mL; write the number only.

Give recorded solubility. Nc1n[n+]([O-])c2ccccc2[n+]1[O-] [Tirapazamine, 1,2,4-benzotriazine-3-amine 1,4-dioxide]
1230

----------
Test: Solubility of tirapazamine in water and various vehicles
Format: physicochemical
Details: Glycerol, 15 °C, organic solvent or mixture
MEASUREMENT KIND: solubility (µg/mL)
Use µg/mL as the unit, but write only the number.

Identify measured solubility corresponding to Nc1n[n+]([O-])c2ccccc2[n+]1[O-] [Tirapazamine, 1,2,4-benzotriazine-3-amine 1,4-dioxide]
4590

Source: patent EP0866709B1
